test system: MALME-3M melanoma; assay: NCI tumour cell line growth inhibition, 48 h
Assay Readout: TGI

| Compound | TGI |
| --- | --- |
| COC(=O)N1CC2(CO)C3CC=C(C(=O)Nc4ccccc4Br)C2C1C3Br (stereo unspecified) | > 50 µM |
| CCOc1ccccc1NC(=O)CCC(=O)OC | > 100 µM |
| Cc1c2cc(Cl)ccc2n2c(=O)c3ccccc3[nH]c(=O)c12 | > 100 µM |

Lab note: each compound below needs its TGI filled in.
1. C=C(C)[C@@]1(O)O[C@H]2C[C@@]3(C)OC(=CC3=O)/C(C)=C\[C@@H]3OC(=O)[C@@]1(C)[C@H]32
2. O=C1N[C@H]2c3c(Cl)sc(Cl)c3/C(=N/O)[C@H]2O1
3. Nc1ncnc2c1ncn2C1OC(COP(=O)(O)CP(=O)(O)O)C(O)C1O (stereo unspecified)

> 100 µM
> 100 µM
> 100 µM
